The entries below come with measured Emax values attached.
# STUDY_SYSTEM: tnPXR (Tetraodon PXR, GAL4/LBD) (Tetraodon nigroviridis)
# Construct: cloned from liver RNA
# EXPERIMENT_SUMMARY: cell-based
# Set-up: GAL4/LBD chimera luciferase transactivation, normalised to beta-galactosidase, efficacy relative to maximal activator
# CONDITION_LABEL: HepG2-NTCP; relative to 50 uM 5α-androstan-3α-ol; read-out: Efficacy

{"COMPOUND": "C[C@]12CCC(=O)C=C1CC[C@@H]1[C@@H]2C(=O)C[C@@]2(C)[C@H]1CC[C@]2(O)C(=O)CO [Cortisone]", "STUDY_SYSTEM": "tnPXR (Tetraodon PXR, GAL4/LBD) (Tetraodon nigroviridis)", "Emax": "19%"}
{"COMPOUND": "CCCCOC(=O)c1ccc(N)cc1 [n-butyl 4-amino benzoate]", "STUDY_SYSTEM": "tnPXR (Tetraodon PXR, GAL4/LBD) (Tetraodon nigroviridis)", "Emax": "88%"}
{"COMPOUND": "CC(=O)[C@H]1CC[C@H]2[C@@H]3CC=C4C[C@@H](O)CC[C@]4(C)[C@H]3CC[C@]12C [Pregnenolone]", "STUDY_SYSTEM": "tnPXR (Tetraodon PXR, GAL4/LBD) (Tetraodon nigroviridis)", "Emax": "34%"}
{"COMPOUND": "CC(=O)[C@H]1CC[C@H]2[C@@H]3CCC4=CC(=O)CC[C@]4(C)[C@H]3CC[C@]12C [Progesterone]", "STUDY_SYSTEM": "tnPXR (Tetraodon PXR, GAL4/LBD) (Tetraodon nigroviridis)", "Emax": "33%"}
{"COMPOUND": "C[C@H](CCC(=O)O)[C@H]1CC[C@H]2[C@@H]3CC[C@@H]4C[C@H](O)CC[C@]4(C)[C@H]3C[C@H](O)[C@]12C [Deoxycholic acid]", "STUDY_SYSTEM": "tnPXR (Tetraodon PXR, GAL4/LBD) (Tetraodon nigroviridis)", "Emax": "33%"}

---

# STUDY_SYSTEM: tnPXR (Tetraodon PXR, GAL4/LBD) (Tetraodon nigroviridis, UniProt H3D8U6)
# Construct: cloned from liver RNA
# Sequence (H3D8U6 123-404): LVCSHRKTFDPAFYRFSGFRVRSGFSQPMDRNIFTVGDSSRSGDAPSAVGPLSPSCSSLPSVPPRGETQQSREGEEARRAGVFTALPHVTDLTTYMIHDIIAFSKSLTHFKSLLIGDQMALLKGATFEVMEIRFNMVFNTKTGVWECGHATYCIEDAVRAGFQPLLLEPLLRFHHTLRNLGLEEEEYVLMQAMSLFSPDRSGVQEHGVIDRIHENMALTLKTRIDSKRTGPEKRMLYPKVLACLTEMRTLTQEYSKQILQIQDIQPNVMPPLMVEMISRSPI
# EXPERIMENT_SUMMARY: cell-based
# Design: GAL4/LBD chimera luciferase transactivation, normalised to beta-galactosidase, efficacy relative to maximal activator
# CONDITION_LABEL: HepG2-NTCP; relative to 50 uM 5α-androstan-3α-ol; read-out: Efficacy

{"COMPOUND": "C[C@H](CCC(=O)NCCS(=O)(=O)O)[C@H]1CC[C@H]2[C@@H]3[C@H](O)C[C@@H]4C[C@H](O)CC[C@]4(C)[C@H]3CC[C@]12C", "STUDY_SYSTEM": "tnPXR (Tetraodon PXR, GAL4/LBD) (Tetraodon nigroviridis, UniProt H3D8U6)", "Emax, %": 59}
{"COMPOUND": "C[C@]12CC[C@@H]3c4ccc(O)cc4CC[C@H]3[C@@H]1CC[C@@H]2O", "STUDY_SYSTEM": "tnPXR (Tetraodon PXR, GAL4/LBD) (Tetraodon nigroviridis, UniProt H3D8U6)", "Emax, %": 47}
{"COMPOUND": "C[C@]12CC[C@H](OS(=O)(=O)O)CC1=CC[C@@H]1[C@@H]2CC[C@]2(C)C(=O)CC[C@@H]12 [DHEA_sulfate]", "STUDY_SYSTEM": "tnPXR (Tetraodon PXR, GAL4/LBD) (Tetraodon nigroviridis, UniProt H3D8U6)", "Emax, %": 70}
{"COMPOUND": "O=S(=O)(c1ccccc1)N(CC(F)(F)F)c1ccc(C(O)(C(F)(F)F)C(F)(F)F)cc1", "STUDY_SYSTEM": "tnPXR (Tetraodon PXR, GAL4/LBD) (Tetraodon nigroviridis, UniProt H3D8U6)", "Emax, %": 17}
{"COMPOUND": "C[C@H](CCC(=O)O)[C@H]1CC[C@H]2[C@@H]3CC[C@@H]4CC(=O)CC[C@]4(C)[C@H]3CC[C@]12C", "STUDY_SYSTEM": "tnPXR (Tetraodon PXR, GAL4/LBD) (Tetraodon nigroviridis, UniProt H3D8U6)", "Emax, %": 65}
{"COMPOUND": "C[C@]12CC[C@@H](O)C[C@@H]1CC[C@@H]1[C@@H]2CC[C@]2(C)C=CC[C@@H]12", "STUDY_SYSTEM": "tnPXR (Tetraodon PXR, GAL4/LBD) (Tetraodon nigroviridis, UniProt H3D8U6)", "Emax, %": 58}
{"COMPOUND": "CC(=O)[C@H]1CC[C@H]2[C@@H]3CC[C@@H]4CC(=O)CC[C@]4(C)[C@H]3CC[C@]12C", "STUDY_SYSTEM": "tnPXR (Tetraodon PXR, GAL4/LBD) (Tetraodon nigroviridis, UniProt H3D8U6)", "Emax, %": 73}

---

# STUDY_SYSTEM: tnPXR (Tetraodon PXR, GAL4/LBD) (Tetraodon nigroviridis)
# Construct: cloned from liver RNA
# Design: species or system HepG2-NTCP; GAL4/LBD chimera luciferase transactivation, normalised to beta-galactosidase, efficacy relative to maximal activator
# CONDITION_LABEL: agonist
The entries below come with measured EC50 values attached.

{"COMPOUND": "O=S(=O)(c1ccccc1)N(CC(F)(F)F)c1ccc(C(O)(C(F)(F)F)C(F)(F)F)cc1", "STUDY_SYSTEM": "tnPXR (Tetraodon PXR, GAL4/LBD) (Tetraodon nigroviridis)", "EC50, µM": 7.7}
{"COMPOUND": "C[C@]12CC[C@H](OS(=O)(=O)O)CC1=CC[C@@H]1[C@@H]2CC[C@]2(C)C(=O)CC[C@@H]12 [DHEA_sulfate]", "STUDY_SYSTEM": "tnPXR (Tetraodon PXR, GAL4/LBD) (Tetraodon nigroviridis)", "EC50, µM": 8.5}
{"COMPOUND": "C[C@]12CC[C@@H](O)C[C@@H]1CC[C@@H]1[C@@H]2CC[C@]2(C)C=CC[C@@H]12", "STUDY_SYSTEM": "tnPXR (Tetraodon PXR, GAL4/LBD) (Tetraodon nigroviridis)", "EC50, µM": 7.4}
{"COMPOUND": "C[C@H](CCC(=O)O)[C@H]1CC[C@H]2[C@@H]3[C@H](O)C[C@@H]4C[C@H](O)CC[C@]4(C)[C@H]3CC[C@]12C [CDCA, 3α,7α-dihydroxy-5β-cholan-24-oic acid]", "STUDY_SYSTEM": "tnPXR (Tetraodon PXR, GAL4/LBD) (Tetraodon nigroviridis)", "EC50, µM": 15.6}
{"COMPOUND": "C[C@H](CCCC(CO)COS(=O)(=O)O)[C@H]1CC[C@H]2[C@@H]3[C@H](O)C[C@H]4C[C@H](O)CC[C@]4(C)[C@H]3C[C@H](O)[C@]12C (stereo partly drawn) [5α-Cyprinol-27-sulfate]", "STUDY_SYSTEM": "tnPXR (Tetraodon PXR, GAL4/LBD) (Tetraodon nigroviridis)", "EC50, µM": 8.2}
{"COMPOUND": "C[C@H](CCC(=O)O)[C@H]1CC[C@H]2[C@@H]3CC[C@@H]4CC(=O)CC[C@]4(C)[C@H]3CC[C@]12C", "STUDY_SYSTEM": "tnPXR (Tetraodon PXR, GAL4/LBD) (Tetraodon nigroviridis)", "EC50, µM": 42.3}
{"COMPOUND": "C[C@H](CCC(=O)NCCS(=O)(=O)O)[C@H]1CC[C@H]2[C@@H]3CC[C@@H]4C[C@H](O)CC[C@]4(C)[C@H]3CC[C@]12C", "STUDY_SYSTEM": "tnPXR (Tetraodon PXR, GAL4/LBD) (Tetraodon nigroviridis)", "EC50, µM": 19.1}

---

# STUDY_SYSTEM: tnVDR (Tetraodon VDR alpha, GAL4/LBD) (Tetraodon nigroviridis)
# Construct: gene VDRa; cloned from liver RNA
# Sequence (A0A0A1CGS5 91-420): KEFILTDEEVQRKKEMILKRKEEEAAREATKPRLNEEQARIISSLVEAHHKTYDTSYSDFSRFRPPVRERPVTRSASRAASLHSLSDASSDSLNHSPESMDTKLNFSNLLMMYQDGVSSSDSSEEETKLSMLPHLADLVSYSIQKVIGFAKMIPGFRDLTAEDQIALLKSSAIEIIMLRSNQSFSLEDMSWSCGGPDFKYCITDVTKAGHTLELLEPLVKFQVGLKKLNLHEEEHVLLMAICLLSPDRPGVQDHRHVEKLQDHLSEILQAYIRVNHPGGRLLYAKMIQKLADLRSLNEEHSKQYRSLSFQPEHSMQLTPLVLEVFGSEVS
# EXPERIMENT_SUMMARY: cell-based
# Design: GAL4/LBD chimera luciferase transactivation, normalised to beta-galactosidase, efficacy relative to maximal activator
# CONDITION_LABEL: HepG2-NTCP; relative to 200 nM 1α,25-(OH)2-vitamin D3; read-out: Efficacy
The entries below come with measured Emax values attached.
RECORDED_ENDPOINT: Emax (%)

{"MOLECULE": "C=C1CC[C@H](O)C/C1=C/C=C1\\CCC[C@]2(C)[C@@H]([C@H](C)CCCC(C)(C)O)CC[C@@H]12 [25-Hydroxyvitamin D3]", "RECORDED_ENDPOINT": "Emax", "OBS_VALUE": 110}
{"MOLECULE": "C[C@H](CCC(=O)O)[C@H]1CC[C@H]2[C@@H]3CC[C@H]4CCCC[C@]4(C)[C@H]3CC[C@]12C [5α-Cholan-24-oic acid]", "RECORDED_ENDPOINT": "Emax", "OBS_VALUE": 3}
{"MOLECULE": "C[C@H](CCC(=O)O)[C@H]1CC[C@H]2[C@@H]3CC[C@@H]4C[C@@H](O)CC[C@]4(C)[C@H]3CC[C@]12C [Iso-LCA]", "RECORDED_ENDPOINT": "Emax", "OBS_VALUE": 4}
